Assay: Concentration providing 50% acceleration of clot lysis in pooled human plasma
Assay type: functional
CLT50 under 0.2 µM gets true (1), anything at or over 0.2 µM gets false (0).

Examples from the recorded data:
COMPOUND: Cc1cc(CC(C(=O)O)c2cn(CCC(C)C)cn2)cnc1N (stereo not drawn)
ANSWER LABEL: true (1)

COMPOUND: CC(C)CCn1cnc(C(CCCCN)C(=O)O)c1 (stereo not drawn)
ANSWER LABEL: false (0)

COMPOUND: Cc1cc(CC(C(=O)O)c2c[nH]cn2)cnc1N (stereo not drawn)
ANSWER LABEL: false (0)

Dear colleague, could you confirm whether CLT50 of CC(C)(C)CCn1cnc(C(C[C@H]2CC[C@H](N)C2)C(=O)O)c1 (stereo partly drawn) falls below 0.2 µM? Thanks. true (1)

Next: Nc1ccc(CC(C(=O)O)c2c[nH]cn2)cn1 (stereo not drawn) false (0)

Next: Cc1cc(CC(C(=O)O)c2cn(CCC(C)(C)C)cn2)cnc1N (stereo not drawn) true (1)

Source: ChEMBL document CHEMBL1147549
